# targetOrTestSystem: Nav1.7 (or SCN9A) channel; HEK cells stably transfected with hSCN9A (Homo sapiens)
# Construct: expressed in transfected cells
# methodDescription: Nav1.7 block, PatchXpress 7000 automated whole-cell voltage clamp, estimated IC50 (EIC50)
# Type: cell-based
# particulars: PatchXpress platform; hSCN9A HEK cells held at V1/2 of inactivation; estimated IC50
reportedProperty: IC50 (µM)
Unit µM implied. Number only.

Solved cases below.
>  <compound>
N#Cc1cc(S(=O)(=O)Nc2nccs2)ccc1Oc1ccccc1-c1ccccc1 [Example 165]

>  <measurementUnit>
µM

>  <IC50>
0.05

$$$$
>  <compound>
Cc1cc(Oc2ccccc2-c2ccccc2)ccc1S(=O)(=O)Nc1ncns1 [Example 261]

>  <measurementUnit>
µM

>  <IC50>
0.47

$$$$
>  <compound>
N#Cc1cc(S(=O)(=O)Nc2nccs2)ccc1Oc1cnn(Cc2ccc(Cl)cc2)c1 [Example 167]

>  <measurementUnit>
µM

>  <IC50>
0.75

$$$$
>  <compound>
Cc1cc(C)n(-c2ccc(Oc3ccc(S(=O)(=O)Nc4nccs4)cc3C#N)cc2)n1 [Example 186]

>  <measurementUnit>
µM

>  <IC50>
1.05

$$$$
>  <compound>
N#Cc1cc(S(=O)(=O)Nc2ncns2)ccc1Oc1cnc(N)nc1-c1ccccc1 [Example 23]

>  <measurementUnit>
µM

>  <IC50>
2.03

$$$$

### Prompt Give recorded IC50 with Nav1.7 (or SCN9A) channel; HEK cells stably transfected with hSCN9A (Homo sapiens) for the following compound: Cc1nsc(NS(=O)(=O)c2ccc(Oc3ccccc3-c3ccccc3)c(C#N)c2)n1 [Example 103]
### Response 1.3

### Prompt Quick one: Cn1cc(-c2ccc(Cl)cc2)c(Oc2ccc(S(=O)(=O)Nc3ncc(Cl)s3)cc2C#N)n1 [Example 137]
### Response 2.59

* * *

# targetOrTestSystem: Nav1.7 (or SCN9A) channel; HEK cells stably transfected with hSCN9A (Homo sapiens, UniProt Q15858)
# Construct: expressed in transfected cells
# Sequence (Q15858 whole entry): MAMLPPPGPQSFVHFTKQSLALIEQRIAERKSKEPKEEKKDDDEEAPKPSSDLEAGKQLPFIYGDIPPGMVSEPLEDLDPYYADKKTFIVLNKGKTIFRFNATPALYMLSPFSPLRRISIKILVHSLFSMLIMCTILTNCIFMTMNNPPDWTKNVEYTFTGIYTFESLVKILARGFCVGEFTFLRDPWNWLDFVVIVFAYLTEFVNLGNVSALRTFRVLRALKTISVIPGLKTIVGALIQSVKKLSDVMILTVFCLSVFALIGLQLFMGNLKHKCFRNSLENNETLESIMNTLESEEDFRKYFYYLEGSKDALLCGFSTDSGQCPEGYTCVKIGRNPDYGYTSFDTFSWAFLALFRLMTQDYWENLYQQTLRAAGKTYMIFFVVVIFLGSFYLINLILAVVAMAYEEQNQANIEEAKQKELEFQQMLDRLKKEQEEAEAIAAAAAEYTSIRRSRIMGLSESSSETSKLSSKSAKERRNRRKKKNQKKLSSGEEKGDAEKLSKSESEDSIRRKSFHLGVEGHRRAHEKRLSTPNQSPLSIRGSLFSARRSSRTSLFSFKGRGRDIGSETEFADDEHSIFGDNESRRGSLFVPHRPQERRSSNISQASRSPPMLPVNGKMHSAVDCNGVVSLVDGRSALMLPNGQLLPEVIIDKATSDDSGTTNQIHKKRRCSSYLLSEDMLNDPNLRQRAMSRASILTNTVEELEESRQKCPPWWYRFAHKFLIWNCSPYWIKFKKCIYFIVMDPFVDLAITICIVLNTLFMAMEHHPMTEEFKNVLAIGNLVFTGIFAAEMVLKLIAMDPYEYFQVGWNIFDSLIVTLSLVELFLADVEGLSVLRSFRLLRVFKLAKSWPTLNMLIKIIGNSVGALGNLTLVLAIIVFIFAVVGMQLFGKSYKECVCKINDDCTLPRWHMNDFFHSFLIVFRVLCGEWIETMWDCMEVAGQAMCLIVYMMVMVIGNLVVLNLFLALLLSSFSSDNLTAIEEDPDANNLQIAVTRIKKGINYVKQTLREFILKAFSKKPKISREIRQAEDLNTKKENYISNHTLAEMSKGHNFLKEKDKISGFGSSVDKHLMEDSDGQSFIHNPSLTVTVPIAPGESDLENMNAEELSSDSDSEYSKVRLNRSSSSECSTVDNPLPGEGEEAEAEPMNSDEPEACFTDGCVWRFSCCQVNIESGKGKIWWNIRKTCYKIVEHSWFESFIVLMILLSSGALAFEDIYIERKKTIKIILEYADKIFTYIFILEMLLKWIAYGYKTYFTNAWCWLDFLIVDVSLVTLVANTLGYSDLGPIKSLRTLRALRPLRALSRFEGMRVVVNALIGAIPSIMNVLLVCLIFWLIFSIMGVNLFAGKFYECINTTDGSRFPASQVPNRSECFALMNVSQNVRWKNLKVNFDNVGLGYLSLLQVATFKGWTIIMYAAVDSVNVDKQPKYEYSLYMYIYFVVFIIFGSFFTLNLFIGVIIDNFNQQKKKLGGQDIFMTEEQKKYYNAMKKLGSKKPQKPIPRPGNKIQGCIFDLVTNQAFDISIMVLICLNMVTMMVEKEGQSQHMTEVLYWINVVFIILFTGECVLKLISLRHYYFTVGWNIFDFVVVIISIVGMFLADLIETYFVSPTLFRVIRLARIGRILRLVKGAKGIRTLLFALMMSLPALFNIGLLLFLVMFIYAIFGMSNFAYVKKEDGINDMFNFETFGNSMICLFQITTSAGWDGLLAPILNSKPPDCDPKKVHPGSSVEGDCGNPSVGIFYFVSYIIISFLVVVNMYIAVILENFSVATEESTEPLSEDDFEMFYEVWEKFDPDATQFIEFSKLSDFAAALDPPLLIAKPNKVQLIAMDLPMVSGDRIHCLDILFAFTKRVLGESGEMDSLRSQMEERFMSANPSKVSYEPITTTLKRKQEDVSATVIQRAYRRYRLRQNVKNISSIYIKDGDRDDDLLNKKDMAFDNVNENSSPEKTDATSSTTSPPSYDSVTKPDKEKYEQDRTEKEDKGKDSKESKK
# methodDescription: Nav1.7 block, PatchXpress 7000 automated whole-cell voltage clamp, estimated IC50 (EIC50)
# Type: cell-based
# particulars: estimated IC50; hSCN9A HEK cells, PatchXpress platform; Examples 815-1040
reportedProperty: IC50 (nM)
Unit nM implied. Number only.

Solved cases below.
>  <structureString>
N#Cc1cc(S(=O)(=O)Nc2cscn2)ccc1Oc1ccc(C(F)(F)F)cc1-c1ccnnc1

>  <measurementUnit>
nM

>  <IC50>
110

$$$$
>  <structureString>
Nc1cc(-c2cc(Cl)ccc2Oc2ccc(S(=O)(=O)Nc3ccncn3)cc2Cl)ccn1

>  <measurementUnit>
nM

>  <IC50>
31

$$$$

### Prompt Item O=S(=O)(Nc1nncs1)c1cc(F)c(Oc2ccc(Cl)cc2-c2cc(N3CCOCC3)ncn2)cc1F has what recorded IC50?
### Response 3900

### Prompt Quick one: CCN1CC(n2nccc2-c2cc(F)ccc2Oc2cc(F)c(S(=O)(=O)Nc3ncns3)cc2Cl)C1
### Response 5.1

### Prompt Quick one: CCN1CC(n2nccc2-c2cc(C(F)(F)F)ccc2Oc2ccc(S(=O)(=O)Nc3ncns3)cc2C#N)C1
### Response 3.5

### Prompt Quick one: O=S(=O)(Nc1nncs1)c1cc(Cl)c(Oc2cc(OC(F)(F)F)ccc2-c2ccnnc2)cc1F
### Response 40

### Prompt Quick one: N#Cc1cc(S(=O)(=O)Nc2ncns2)ccc1Oc1cc(OC(F)(F)F)c(F)cc1-c1ccnnc1
### Response 21
